- STUDY_TARGET: Human monoamine oxidase B (Homo sapiens, UniProt P27338)
- Construct: purchased Sigma-Aldrich (Milan, Italy)
- ASSAY_SUMMARY: Kinetic analysis of MAO-B inhibition (KM, Vmax, apparent Ki)
- Format: biochemical
- EXPERIMENTAL_CONTEXT: uncompetitive; apparent Ki, mean ± SE (n); read-out: Ki, average value from Vmax or KM decrease (MAO-B)
The compounds listed here are annotated with their pKi.
Scale note: pKi = -log10(concentration in M).

Quick one: pKi of "O=C(OCCc1ccc(O)cc1)C1CCN(Cc2ccccc2)CC1" ? 3.89

Similarly, "O=C(OCCc1cc(O)c(O)cc1[N+](=O)[O-])C1CCN(Cc2ccccc2)CC1" ? 3.73

----------
- STUDY_TARGET: UniProt P27338
- Sequence (P27338 1-520): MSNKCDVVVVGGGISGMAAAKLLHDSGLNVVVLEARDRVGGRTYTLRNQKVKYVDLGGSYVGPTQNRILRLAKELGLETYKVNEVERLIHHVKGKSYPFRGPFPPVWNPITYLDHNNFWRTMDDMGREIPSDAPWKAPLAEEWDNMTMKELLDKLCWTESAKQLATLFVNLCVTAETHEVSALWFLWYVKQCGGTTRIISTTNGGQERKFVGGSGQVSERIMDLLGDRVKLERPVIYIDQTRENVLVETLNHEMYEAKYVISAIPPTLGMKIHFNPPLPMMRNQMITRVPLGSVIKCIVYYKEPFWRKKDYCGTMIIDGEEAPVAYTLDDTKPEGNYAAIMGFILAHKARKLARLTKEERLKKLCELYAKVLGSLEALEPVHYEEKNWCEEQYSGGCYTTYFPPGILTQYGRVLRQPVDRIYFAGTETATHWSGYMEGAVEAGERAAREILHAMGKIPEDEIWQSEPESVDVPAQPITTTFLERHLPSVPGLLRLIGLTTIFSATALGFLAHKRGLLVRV
ENDPOINT: IC50 (µM)
State the answer as a number, implicitly in µM.

{"MOLECULE": "COc1cc(CCOC(=O)C2CCN(Cc3ccccc3)CC2)ccc1O [HT3]", "ENDPOINT": "IC50", "TEST_VALUE": 171}
{"MOLECULE": "CC(=O)Oc1ccc(CCOC(=O)C2CCN(Cc3ccccc3)CC2)cc1 [HT4a]", "ENDPOINT": "IC50", "TEST_VALUE": 86}
{"MOLECULE": "CC(=O)Oc1ccc(CCOC(=O)C2CCN(Cc3ccccc3)CC2)cc1OC(C)=O [HT1a]", "ENDPOINT": "IC50", "TEST_VALUE": 85}
{"MOLECULE": "O=C(OCCc1ccc(O)c(O)c1)C1CCN(Cc2ccccc2)CC1 [HT1]", "ENDPOINT": "IC50", "TEST_VALUE": 125}
{"MOLECULE": "O=C(OCCc1ccc(O)cc1)C1CCN(Cc2ccccc2)CC1 [HT4]", "ENDPOINT": "IC50", "TEST_VALUE": 106}

Quick one: IC50 of O=C(OCCc1cc(O)c(O)cc1[N+](=O)[O-])C1CCN(Cc2ccccc2)CC1 [HT2] ? 184

Similarly, COc1cc(CCOC(=O)C2CCN(Cc3ccccc3)CC2)ccc1OC(C)=O [HT3a] ? 174

----------
- STUDY_TARGET: Human monoamine oxidase A (Homo sapiens, UniProt P21397)
- Construct: purchased Sigma-Aldrich (Milan, Italy)
- Sequence (P21397 whole entry): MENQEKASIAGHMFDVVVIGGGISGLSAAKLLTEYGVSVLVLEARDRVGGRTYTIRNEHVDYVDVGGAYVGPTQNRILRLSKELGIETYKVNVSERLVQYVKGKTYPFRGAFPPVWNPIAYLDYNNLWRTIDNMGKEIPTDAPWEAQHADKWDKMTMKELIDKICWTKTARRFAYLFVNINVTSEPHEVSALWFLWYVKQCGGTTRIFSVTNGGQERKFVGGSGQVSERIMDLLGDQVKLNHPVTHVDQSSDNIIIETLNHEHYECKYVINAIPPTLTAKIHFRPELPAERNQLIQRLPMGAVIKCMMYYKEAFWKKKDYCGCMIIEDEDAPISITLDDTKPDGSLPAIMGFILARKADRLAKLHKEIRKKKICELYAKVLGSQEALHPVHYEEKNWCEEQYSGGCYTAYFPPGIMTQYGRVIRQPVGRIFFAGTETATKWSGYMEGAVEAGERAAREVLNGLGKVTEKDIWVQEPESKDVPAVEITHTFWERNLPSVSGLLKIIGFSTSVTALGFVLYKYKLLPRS
- ASSAY_SUMMARY: Kinetic analysis of MAO-A inhibition (KM, Vmax, apparent Ki)
- Type: biochemical
- EXPERIMENTAL_CONTEXT: apparent Ki, mean ± SE (n); read-out: Ki, Calculated from KM Increase (MAO-A)
The molecules listed here are annotated with their pKi.
Scale note: pKi = -log10(concentration in M).

Use the examples below as a reference point.
{"SMILES_STR": "CC(=O)Oc1ccc(CCOC(=O)C2CCN(Cc3ccccc3)CC2)cc1", "STUDY_TARGET": "Human monoamine oxidase A (Homo sapiens, UniProt P21397)", "pKi": 4.81}
{"SMILES_STR": "CC(=O)Oc1ccc(CCOC(=O)C2CCN(Cc3ccccc3)CC2)cc1OC(C)=O", "STUDY_TARGET": "Human monoamine oxidase A (Homo sapiens, UniProt P21397)", "pKi": 4.44}
{"SMILES_STR": "O=C(OCCc1ccc(O)cc1)C1CCN(Cc2ccccc2)CC1", "STUDY_TARGET": "Human monoamine oxidase A (Homo sapiens, UniProt P21397)", "pKi": 5.21}
{"SMILES_STR": "COc1cc(CCOC(=O)C2CCN(Cc3ccccc3)CC2)ccc1O", "STUDY_TARGET": "Human monoamine oxidase A (Homo sapiens, UniProt P21397)", "pKi": 5.12}

Please find the next molecule below.
Quick one: pKi of "O=C(OCCc1ccc(O)c(O)c1)C1CCN(Cc2ccccc2)CC1" ? 4.40
